test system: SNB-75 CNS; assay: NCI tumour cell line growth inhibition, 48 h
compounds and their reported TGI

{"compound": "CC(NC(=O)C(C)C(=O)NCc1ccc(C(F)(F)F)cc1)C(N)=O (stereo unspecified)", "TGI": "> 100 µM"}
{"compound": "O=C(c1ccc(O)cc1)c1ccc(C(=O)c2ccc(O)cc2)cc1", "TGI": "56.2 µM"}
{"compound": "COc1ccc(S(=O)(=O)O)cc1NS(=O)(=O)c1ccc(C)cc1", "TGI": "> 100 µM"}
{"compound": "COc1cc(C)c(C(=O)/C=C/c2cc(OC)c(O)c(OC)c2)cc1O", "TGI": "> 100 µM"}
{"compound": "Cc1ccc(S(=O)(=Nc2ccccc2)C(C(C)C)C(C)(C)Cl)cc1 (stereo unspecified)", "TGI": "> 50 µM"}
{"compound": "COc1cc(C2c3cc4c(cc3C3OC(=O)C2C3CO)OCO4)cc(OC)c1OC (stereo unspecified)", "TGI": "> 100 µM"}
{"compound": "N#CC1N(C(=O)c2ccc(F)cc2)c2ccccc2N1C(=O)c1ccc(F)cc1", "TGI": "> 100 µM"}
{"compound": "CN(N)C(=O)NCCCl", "TGI": "> 100 µM"}
{"compound": "COc1cc2c(c3oc(-c4ccc5c(c4)OCO5)c(O)c(=O)c13)CCC(C)(C)O2", "TGI": "> 100 µM"}
{"compound": "CSc1nc2c(nc(N)n2C2OCC(O)C(O)C2O)c(=O)[nH]1 (stereo unspecified)", "TGI": "> 100 µM"}
{"compound": "CC(C)C(/C=C/c1ccccc1)=N\\NC(=O)N/N=C(/C=C/c1ccccc1)C(C)C", "TGI": "92.5 µM"}

###

system: NCI-H23 lung; assay: NCI tumour cell line growth inhibition, 48 h

{"compound": "C=C(C)CC1=C(C(=S)NCCO[Si](C)(C)C(C)(C)C)C(OCC)(OCC)C1=O", "inequalityOperator": "=", "TGI / µM": 40.5}
{"compound": "O=C1C[C@H](c2ccccc2)C2(C(=O)c3ccccc3C2=O)[C@@H](c2ccccc2)C1", "inequalityOperator": ">", "TGI / µM": 100}
{"compound": "Cc1ccc(S(=O)(=Nc2ccccc2)C(C(C)C)C(C)(C)Cl)cc1 (stereo unspecified)", "inequalityOperator": "=", "TGI / µM": 46.5}
{"compound": "CC(=O)OCCC/C(=C\\c1ccc2ccccc2c1)[N+](=O)[O-]", "inequalityOperator": "=", "TGI / µM": 4.65}
{"compound": "Cc1nnc(N)nc1/C=C\\c1cccs1", "inequalityOperator": "=", "TGI / µM": 55.1}
{"compound": "NNC(=O)CC(=O)Nc1ccccc1F", "inequalityOperator": ">", "TGI / µM": 100}

###

system: DU-145 prostate; test: NCI tumour cell line growth inhibition, 48 h; in the data active means GI50 below about 0.43 µM; inactive means the rest
Possible outcomes: active, inactive

{"compound": "COc1cc(Nc2ncc3c(n2)-c2ccc(Cl)cc2C(c2c(F)cccc2OC)=NC3)ccc1C(=O)O", "class": "inactive"}
{"compound": "C/C1=C\\CC[C@@](C)(O)[C@H]2C[C@H](CC/C(C)=C/CC1)C1(CC1)C(=O)O2", "class": "inactive"}
{"compound": "O=C(O)c1cn(C2CC2)c2cc(N3CCN(S(=O)(=O)c4ccc(Cl)c(Cl)c4)CC3)c(F)cc2c1=O", "class": "inactive"}
{"compound": "COc1ccc(C(=O)Nc2ncc(Cc3ccc(F)cc3)s2)cc1", "class": "active"}
{"compound": "COc1cc(C2c3cc4c(cc3C3OC(=O)C2C3CO)OCO4)cc(OC)c1OC (stereo not given)", "class": "active"}
